B1: library; numbered along this chain (parent)
chain: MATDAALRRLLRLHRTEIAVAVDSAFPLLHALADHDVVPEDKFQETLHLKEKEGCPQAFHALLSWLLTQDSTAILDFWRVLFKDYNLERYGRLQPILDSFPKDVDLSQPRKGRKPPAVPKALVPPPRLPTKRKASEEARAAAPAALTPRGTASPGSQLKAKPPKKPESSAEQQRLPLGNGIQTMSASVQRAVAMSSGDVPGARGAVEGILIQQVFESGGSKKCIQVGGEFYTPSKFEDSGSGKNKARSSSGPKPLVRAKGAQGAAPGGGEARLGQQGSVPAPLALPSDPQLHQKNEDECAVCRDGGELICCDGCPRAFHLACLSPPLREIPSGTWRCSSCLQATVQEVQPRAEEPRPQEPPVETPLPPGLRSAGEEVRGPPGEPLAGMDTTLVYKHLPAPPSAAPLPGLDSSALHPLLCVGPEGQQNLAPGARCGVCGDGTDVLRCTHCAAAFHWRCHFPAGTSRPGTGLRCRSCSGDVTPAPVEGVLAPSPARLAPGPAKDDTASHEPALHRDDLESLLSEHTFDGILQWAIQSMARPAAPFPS

Variants of: B1
Measurement Description: AIRE transcriptional activation functional score (insulin promoter-GFP; nonsense median 0, synonymous median 1) (normalised score); higher = higher AIRE activity (more reporter activation)
Run Parameters: with insulin promoter-GFP reporter in HEK293
Classification field: true = AIRE transcriptional activation functional score at or over 1; false = AIRE transcriptional activation functional score under 1.

# bool: AIRE transcriptional activation functional score of A170D >= 1
false

And what about the variant F100N ?
true

And what about the variant E167D ?
true

And what about the variant L409Y ?
false

And what about the variant I74M ?
false

And what about the variant L520R ?
false

And what about the variant S332R ?
true

And what about the variant P266R ?
false

And what about the variant S250A ?
false

And what about the variant R9M ?
false

And what about the variant T334Q ?
false

And what about the variant L28W ?
false

And what about the variant I181W ?
true

And what about the variant L66D ?
false

And what about the variant L29C ?
false

All values here come from the supplement of paper PMC12667976.
